Form field: pIC50 (one value per entry).
- measured-target: Full length (FL) 3-Phosphoglycerate Dehydrogenase (PHGDH) (Homo sapiens, UniProt O43175)
- Construct: Full length (FL) 3-Phosphoglycerate Dehydrogenase (PHGDH) Diaphorase coupled assay (500 uM NAD)
- Sequence (O43175 whole entry): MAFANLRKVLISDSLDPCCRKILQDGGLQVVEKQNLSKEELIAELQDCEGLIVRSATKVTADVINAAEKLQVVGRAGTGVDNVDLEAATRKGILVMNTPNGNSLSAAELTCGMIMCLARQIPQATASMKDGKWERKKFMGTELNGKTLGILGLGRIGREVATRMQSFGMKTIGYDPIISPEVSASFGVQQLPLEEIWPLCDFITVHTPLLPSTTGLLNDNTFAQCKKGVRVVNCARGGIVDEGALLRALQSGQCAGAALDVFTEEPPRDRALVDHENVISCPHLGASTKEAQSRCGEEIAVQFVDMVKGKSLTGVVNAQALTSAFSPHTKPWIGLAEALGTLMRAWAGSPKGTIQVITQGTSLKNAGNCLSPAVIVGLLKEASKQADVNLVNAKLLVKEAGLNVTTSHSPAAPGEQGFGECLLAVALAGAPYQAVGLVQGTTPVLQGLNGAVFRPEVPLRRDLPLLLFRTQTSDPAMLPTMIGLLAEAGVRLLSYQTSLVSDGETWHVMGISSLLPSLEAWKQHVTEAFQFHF
- assay-remarks: Full length (FL) PHGDH Diaphorase coupled assay (500 uM NAD)
- Format: biochemical
- condition-info: full-length PHGDH 5 nM, 30° C. 60 minutes, resorufin fluorescence
pIC50: −log10 of the molar value.
measurement-type: pIC50

> print(dat)
                                   compound                           measured.target        result
1  CCCC(C(=O)O)c1ccc(C2(NC(=O)c3cc4c(Cl)c(Cl)c(OC)cc4n3C)COC2)cc1 (racemic) [I-38 e115]  Full length (FL) 3-Phosphoglycerate Dehydrogenase (PHGDH) (Homo sapiens, UniProt O43175)  6.00 to 9.00
2  Cn1c(C(=O)NC2(c3ccc(C(C(=O)O)C4CCCC4)cc3)CCOC2)cc2c(Cl)c(Cl)ccc21 (racemic) [I-16 e87]  Full length (FL) 3-Phosphoglycerate Dehydrogenase (PHGDH) (Homo sapiens, UniProt O43175)  6.00 to 9.00
3  CC(C(=O)O)c1ccc(C2(NC(=O)c3cc4c(Cl)c(Cl)ccc4n3C)COC2)cc1 (racemic) [I-68 e58]  Full length (FL) 3-Phosphoglycerate Dehydrogenase (PHGDH) (Homo sapiens, UniProt O43175)  6.00 to 9.00
4  Cn1c(C(=O)NC2(c3ccc(CC(=O)O)cc3C#N)CCOC2)cc2c(Cl)c(Cl)ccc21 (racemic) [I-71 e158]  Full length (FL) 3-Phosphoglycerate Dehydrogenase (PHGDH) (Homo sapiens, UniProt O43175)  5.30 to 6.00
5  COCCOc1cc2c(cc(C(=O)NC3(c4ccc(C(=O)O)cc4)CCOC3)n2C)c(Cl)c1Cl (racemic) [I-100 e99]  Full length (FL) 3-Phosphoglycerate Dehydrogenase (PHGDH) (Homo sapiens, UniProt O43175)  6.00 to 9.00
6  COc1cc2c(cc(C(=O)NC3(c4ccc(C(=O)O)cc4Cl)COC3)n2C)c(Cl)c1F [I-44 e76]  Full length (FL) 3-Phosphoglycerate Dehydrogenase (PHGDH) (Homo sapiens, UniProt O43175)  6.00 to 9.00
7  CCc1cc(C2(NC(=O)c3cc4c(Cl)c(Cl)ccc4n3C)CCOC2)ccc1C(=O)O (racemic) [I-88 e156]  Full length (FL) 3-Phosphoglycerate Dehydrogenase (PHGDH) (Homo sapiens, UniProt O43175)  5.30 to 6.00

Ref: patent US11634412B2
